test: soluble on expression in E. coli; label from the status in PepcDB or PDB records

entry_sequence	soluble on expression in E. coli
MGSDKIHHHHHHMKVICITQARMGSSRLPGKVLKIIGTRPMLEYHVRRVAKSKLINHHIIATSNQENDLPIVEYCQQNNIDYYRGNETDVLGRFYETALSVHAEPDDIIIRLTGDCPLICPQLIDDAIKLQFSGESQQYTHVSLAYFPRGFDVEVFRMRSLSEAYFKALAPAQREHVTLYLYSKPDALIVPVTLHGNPSWSHFRLCVDEQDDFLLVEQLICRLGEQWLDAGPRQICELLEGNPQLVTINAHIHQRTAH	not soluble
MGSDKIHHHHHHMKYLLLIPDGMADWEVEELDGRTPLEVAETENMDFLAKEGACGIAKTVPDGFEPGSDVANLTILGVDVRKHYTGRGPIEALARGVKGKLVFRCNLVKVEDGVMVDYSGGRISDEEARKVIEELNRAKPYDFVKFYAGKSYRNLLVINKDFRDDVKTFPPHDITGKEIDKHLPSGGELAELLKELMGWSAEILPEITDKANMIWPWGGGRMPSFPNFGQRYGLRGAMITEVDLLEGIARGMGMEVVQVEGITGYIDTNYRGLVRETARALEEHDFVVLHTEGIDEVGHEGDAELKVRAIELYDSKIVGKLLNKVDLDETRILLLPDHPTPVKVKTHVAEPVPFTLYGRGRDEVKVYTEKSCRRGKFGLVDGLRLMDLLIKK	not soluble

###

assay: soluble on expression in E. coli; label from the status in PepcDB or PDB records
observation_type: soluble on expression in E. coli

These recorded examples may help you get a feel for the data.
entry_sequence	soluble on expression in E. coli
MGSDKIHHHHHHMWIEQRLWTPEGGWTVTETSPGKASLVLYFAAPGALTPESILADLRVAYGNAPILGCTTGGEILGPEVLDDSIVVSALGFDKASVRMASRDLSDVSQSRETGAALARELAGEDLRAIFILSDGTKVNGDSLVAGCLSAVTSDVVVTGGLAGDGARFQTTAVGCSDAMRPGRVAAVGFYGDSLAIGHGSFGGWDEFGPPRTITRSAANVLYELDGEPALDLYKRYLGEEAQGLPGSALLFPLSIRPSGDDAGAEVVRTIVGIDEEAKSMIFAGDVPTGHLARLMRGNFDNLVDGAGRAAEAAAAIKGPSLGLLVSCIGRKLLMGQRIAEEVEIVSDVLGKEASLMGFYSYGEISPHGFTGKCELHNQTMTITTISER	not soluble
MSLNSQGYAVVDFETTGLSPAKGDRAIEIGLVHVAPDGTLEDEHETLIHVDRSVGASWVHHITARELLHAPDFEGIAHELRDLLAGRVFVAHNVSFDSRFLLAEYSRMGASIPVDQSTMLCTMKLSRSLIGRGKLADCCEYFGIANEDAHSALSDAHATAILLGRLLEADPKWPGFQRRLDAAGAAAEQWPTEGHHHHHH	not soluble
MGSSHHHHHHGGTGENLYFQGGSGKNYFYIPIADDMHCHLRQGDMLDFTVNSIRRGGCNRVLVMPNTHPIISTCSDAQKYLYQLKSRDDDIEYLMTLYLNKNTDENDILSNYYKCNLQGVKIYPSNVTTNSSDGITSLEPYYKVFHALEKLNKSIHIHCEEPNINPLYAEEKYLPHIHDLAIKFPGLNIVLEHISSSESINVIKEFRNVAGSITPHHLYLTIDDVVNMDIYDHAIDNTYIEKYIKNTYHYCKPLPKLLEDKIALQDVIKDDFPRVFLGSDSAPHYKVMKRKPYYKPGIYTQPFLINYVAHILNKFDALDKMENFTSKNASLFLNLAEKKKLAKYYICVEKHPFKLPREYNGVVPFLAGKTLDYDIHYVSKF	not soluble
MAEILRAENIKKVIRGYEILKGISLSVKKGEFVSIIGASGSGKSTLLYILGLLDAPTEGKVFLEGKEVDYTNEKELSLLRNRKLGFVFQFHYLIPELTALENVIVPMLKMGKPKKEAKERGEYLLSELGLGDKLSRKPYELSGGEQQRVAIARALANEPILLFADEPTGNLDSANTKRVMDIFLKINEGGTSIVMVTHERELAELTHRTLEMKDGKVVGEITRV	soluble
GSHMNLKEQLCFSLYNAQRQVNRYYSNKVFKKYNLTYPQFLVLTILWDESPVNVKKVVTELALDTGTVSPLLKRMEQVDLIKRERSEVDQREVFIHLTDKSETIRPELSNASDKVASASSLSQDEVKELNRLLGKVIHAFDE	soluble

Ask: Give the measured soluble on expression in E. coli of MNINRNKIVQLADTDTIENLTSALSQRLIADQLRLTTAESCTGGKLASALCAAEDTPKFYGAGFVTFTDQAKMKILSVSQQSLERYSAVSEKVAAEMATGAIERADADVSIAITGYGGPEGGEDGTPAGTVWFAWHIKGQNYTAVMHFAGDCETVLALAVRFALAQLLQLLL .
Reply: not soluble

Ask: Give the measured soluble on expression in E. coli of KHDGIPAECTTIYNRGEHTSGMYAIRPSNSQVFHVYCDVISGSPWTLIQHRIDGSQNFNETWENYKYGFGRLDGEFWLGLEKIYSIVKQSNYVLRIELEDWKDNKHYIEYSFYLGNHETNYTLHLVAITGNVPNAIPENKDLVFSTWDHKAKGHFNCPEGYSGGWWWHDECGENNLNGKYNKPRAKSKPERRRGLSWKSQNGRLYSIKSTKMLIHPTDSESFE .
Reply: soluble

###

test: soluble on expression in E. coli; label from the status in PepcDB or PDB records

entry_sequence	soluble on expression in E. coli
MQKIKSLMTRQGLKSPQESLSDLGAIESLRVPGKEEFRELREQPSDPQAEQELINSIEQVYFSVDSFDIVKYELEKLPPVLNLQELEAYRDKLKQQQAAVSKKVADLILEKQPAYVKELERVTSLQTGLQLAAVICTNGRRHLNIAKEGFTQASLGLLANQRKRQLLIGLLKSLRTIKTLQRTDVRLSEMLEEEDYPGAIQLCLECQKAASTFKHYSCISELNSKLQDTLEQIEEQLDVALSKICKNFDINHYTKVQQAYRLLGKTQTAMDQLHMHFTQAIHNTVFQVVLGYVELCAGNTDTKFQKLQYKDLCTVCSDLITIHISLL	soluble
MHHHHHHAMDTYKLFIVIGDRVVVVTTEAVDAATAEKVFKQYANDNGVDGEWTYDDAAKTFTVTE	soluble
MQKKRFSKKYEVHYYEINSMQEATLLSLLNYMEDCAISHSTSAGYGVNELLAADAGWVLYRWLIKIDRLPKLGETITVQTWASSFERFYGNREFIVLDGRDNPIVKASSVWIYFNIKKRKPMRIPLEMGDAYGIDETRALEEPFTDFDFDFEPKVIEEFTVKRSDIDTNSHVNNKKYVDWIMETVPQQIYDNYKVTSLQIIYKKESSLGSGIKAGCVIDEQNTDNPRLLHKIWDKNTGLELVSAETIWQKIQS	soluble

###

test: soluble on expression in E. coli; label from the status in PepcDB or PDB records
observation_type: soluble on expression in E. coli

These recorded examples may help you get a feel for the data.
entry_sequence	reported_value
MAYLEQLQAGLRYLGRAGESGRKSLDKVVAPVNGAISEIRGAAAELENLPGVSPEMAARLQRAMRGIGQAQGKVNRVVSTYDRASRALLGIDERLDALKVQVNSAAQAVGKVAGDISPTLAGVLPSWLLAPSATPPSEAAASLPHLLVLQPLTANAQPFYFNLNTAAFDALQRNSAYNWSGQVRLGRRPALQSVGMGEESILLKGAVFPLRRQVGNQEKVVGLEQLEALRRLAERREPLILSSGYGEVQMGLWCLVRISENQSALLGNGAPRKQTFDLEFKRYGDDLPNR	not soluble
MGSDKIHHHHHHMIKSFWLENFGPISLLKADNLGKINLIIAENSKGKTFILKALYSVLKSHEEAHKGKNIRDFSEELRDKLYWTFQVEEIGDLVTRGKENPNERPLKLSMTLEDSSSVLFSFGRTTKKLIKPELYELSPRINANSIFLPPKEVLSLFDVIKKSEEEKRFGFDATYIDLVKALDIKPTKGRNYPEAAEARKDLEALFGGYVSYNDKKKAWVYEKDRQTFSINSTAEGVKKIGILDTLLGNRFLSPGSILFIDEPEANLHPKAINQFLEILFSLSKSKLGIQIFMSTHSYFVIKKLCLLARKHSESIPVFMPGKEKEQTTWVQENLQNSMPDNEIIGESIRLFREEIGVLSPETAWIG	not soluble
MSYNLLGFLQRSSNFQSQKLLWQLNGRLEYCLKDRMNFDIPEEIKQLQQFQKEDAALTIYEMLQNIFAIFRQDSSSTGWNETIVENLLANVYHQINHLKTVLEEKLEKEDFTRGKLMSSLHLKRYYGRILHYLKAKEYSHCAWTIVRVEILRNFYFINRLTGYLRN	not soluble
MAHHHHHHMATPKQKETICEAAIVGFSFNKDRTEAVFSPNNHLLYIVSCKDIKDCSTWEIYATLEHHDQSVSATAWHGSTNRILSCSQDRTAFVWQRNAKGKWKPQMVMLDAGVKRGLTSCAWNHSGSKIYVGSAASNIAVGRFDAENEWWICRLLEGHTSTVTALAPHPSDDTLLLSGGTDGRLMLISTFMKKLDGKKSSSFGHVYLEKCFGAWVHAIAWAPSGQRFAVATHDSRVHVFDIPSVDNLSESIDEGLAIYSVSLAILPLKSLAFVLEDHLVGGGFDYFPALFQPSKKGTGWTMSGKWTMTRVKGAKTAQQIAREKFQNEARIGQAELLEEEQTRHKNTINGVLTLIDDGAAFKSAMEGPVFATASLDGRVEVWTIRDMIPII	not soluble
GQLVESGGGSVQAGGSLRLSCAASGIDSSSYCMGWFRQRPGKEREGVARINGLGGVKTAYADSVKDRFTISRDNAENTVYLQMNSLKPEDTAIYYCAAKFSPGYCGGSWSNFGYWGQGTQVTVSSH	soluble

Attention now turns to another entry.
Ask: Give the measured soluble on expression in E. coli of MNHLPVVGEDYVEIPDGRPFAPLAGKIEVVEIFGYTCPHCAHFDSKLQAWGARQAKDVRFTLVPAVFGGVWDPFARAYLAADVLGVAKRSHTAMFEAIHEKGSVPIQNVGPDELAVFYAGYGVQPDRFVATFNGPEVEKRFQAARAYALKVRPVGTPTIVVNGRYMVTGHDFEDTLRITDYLVSRERAASHGR .
Reply: soluble
